The measured values listed here are drawn from ChEMBL document CHEMBL5120922.

Experiment: Half life in Sprague-Dawley rat at 10 mg/kg, po measured upto 24 hrs by LC-MS/MS analysis
Assay type: ADME, organism-based
Details: in vivo
ASSAY_READOUT: half-life (h)
Give your result in h as a bare value.

Which half-life reading was recorded for the molecule C[C@H]1CC[C@@H](c2nc3cccc(Cl)c3c(=O)n2-c2cccnc2)N1c1nc(N)nc(N)c1C#N ?
2.4

====

Target: Phosphatidylinositol 4,5-bisphosphate 3-kinase catalytic subunit alpha isoform (Homo sapiens, UniProt P42336)
Sequence (P42336 whole entry, canonical isoform): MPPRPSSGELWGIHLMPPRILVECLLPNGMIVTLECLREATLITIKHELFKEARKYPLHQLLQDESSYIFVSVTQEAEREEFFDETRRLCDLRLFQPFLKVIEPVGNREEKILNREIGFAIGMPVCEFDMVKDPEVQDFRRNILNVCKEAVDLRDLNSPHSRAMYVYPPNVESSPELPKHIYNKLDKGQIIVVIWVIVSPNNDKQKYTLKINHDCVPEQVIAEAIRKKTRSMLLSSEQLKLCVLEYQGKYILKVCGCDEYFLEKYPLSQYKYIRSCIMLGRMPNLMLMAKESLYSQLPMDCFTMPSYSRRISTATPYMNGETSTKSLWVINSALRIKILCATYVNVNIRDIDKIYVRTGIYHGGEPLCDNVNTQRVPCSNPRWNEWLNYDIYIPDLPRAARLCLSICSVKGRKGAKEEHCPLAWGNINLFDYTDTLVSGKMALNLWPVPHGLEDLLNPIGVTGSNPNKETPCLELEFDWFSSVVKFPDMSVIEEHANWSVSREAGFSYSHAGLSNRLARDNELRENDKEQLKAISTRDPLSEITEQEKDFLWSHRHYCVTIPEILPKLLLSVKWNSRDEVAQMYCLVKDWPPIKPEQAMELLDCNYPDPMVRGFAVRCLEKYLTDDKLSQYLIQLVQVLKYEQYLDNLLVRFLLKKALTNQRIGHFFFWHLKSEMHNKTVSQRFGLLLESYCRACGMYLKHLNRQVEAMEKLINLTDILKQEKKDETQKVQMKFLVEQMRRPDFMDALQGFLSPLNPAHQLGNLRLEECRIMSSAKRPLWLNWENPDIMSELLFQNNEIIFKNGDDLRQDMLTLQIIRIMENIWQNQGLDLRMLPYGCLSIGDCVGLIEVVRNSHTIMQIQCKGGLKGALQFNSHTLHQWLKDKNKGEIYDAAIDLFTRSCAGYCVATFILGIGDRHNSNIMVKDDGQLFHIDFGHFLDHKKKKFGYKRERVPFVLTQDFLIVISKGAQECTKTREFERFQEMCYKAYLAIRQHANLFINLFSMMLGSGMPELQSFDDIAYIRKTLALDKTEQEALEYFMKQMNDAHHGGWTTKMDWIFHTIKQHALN
Assay: Inhibition of N-terminal His6-tagged recombinant full length human PI3Kalpha expressed in baculovirus infected Sf21 insect cells incubated for 30 mins by HTRF assay
Each entry below lists one item and its recorded pIC50 value.
To interpret pIC50, take it as minus log10 of a concentration measured in moles per litre.

Name the reported pIC50 value associated with the compound C[C@H]1CC[C@@H](c2nc3c(F)cc(F)cc3c(=O)n2-c2cccnc2)N1c1nc(N)nc(N)c1C#N
3.43

Continuing:
What value of measured pIC50 is listed for COc1cncc(-c2cccc3nc([C@@H]4CC[C@H](C)N4c4nc(N)nc(N)c4C#N)n(-c4cccc(F)c4)c(=O)c23)c1 ?
4.66

Which pIC50 is reported for this compound? N#Cc1c(N)nc(N)nc1N1[C@H](c2nc3cccc(F)c3c(=O)n2-c2cccnc2)C[C@@H]2CCCC[C@@H]21
2.51

Name the reported pIC50 value associated with the compound C[C@H]1CC[C@@H](c2nc3cccc(Cl)c3c(=O)n2-c2cccnc2)N1c1nc(N)nc(N)c1C#N
3.10

So what's the measured pIC50 for this one? C[C@H]1CC[C@@H](c2nc3cccc(Cl)c3c(=O)n2-c2cccc(F)c2)N1c1nc(N)nc(N)c1C#N
3.59
